Please go through the items and note down their fraction ligated.
B1: F1*; the commonest letter at each place (parent)
chain: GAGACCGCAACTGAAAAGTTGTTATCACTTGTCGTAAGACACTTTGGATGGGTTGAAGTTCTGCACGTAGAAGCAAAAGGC

# Variants of: B1
# test details: fraction ligated after 30 min (ligated reads / total reads); higher = more ligase activity
# condition label: with F1*sub RNA substrate (template-directed ligation), 42 °C
Numbers only.

[
  {
    "seq": "GAGACCGCAACTGAAAAGTTGTTATCATTTGTCGTAAGACACTTCGGATGGGTTGAAGTTCTGCACGTAGAAGCAAAAGGC",
    "fraction ligated": 0.284
  }
]

Kindly give each listed record's fraction ligated.
1. GAGACCGCAACTGAAAAGTTGTTATCACTTGTCGTAAGACACAGTGGATGGGTTGAAGTTCTGCACGTAGAAGCAAAAGGC
2. GAGACCGCAACTGAAAAGTTGTTCTCACTTCTCGTAAGACACTTTGGATGGGTTGAAGTTCTGCACGTAGAAGCAAAAGGC
3. GAGACCGCAACTGAAAAGTTGTTATGACTTGTCGTAAGAAACTTTGGATGGGTTGAAGTTCTGCACGTAGAAGCAAAAGGC
4. GAGACCGCAACTGAAAAGTTGTTATCACTTGTCGTAAGCCACTTGGGATGGGTTGAAGTTCTGCACGTAGAAGCAAAAGGC

1: 0.804; 2: 0.038; 3: 0.248; 4: 0.138

Kindly give each listed record's fraction ligated.
1. GAGACCGCAACTGAAAAGTTGTTATCATTTGTCGTAAGACACTTTGGATTGGTTGAAGTTCTGCACGTAGAAGCAAAAGGC
2. GAGACCGCAACTGAAAAGTTGTTCTCACTTGTCGTAATACACTTTGGATGGGTTGAAGTTCTGCACGTAGAAGCAAAAGGC

[0.747, 0.468]
